Just for reference, patent US20260049134A1 is where these values come from.

Target of assay: T1, GARS, endogenous in H929 multiple myeloma cells (human, UniProt P41250 37-739, limits assumed)
T1 construct: Native protein pulled down from H929 lysates; also called Glycyl-tRNA synthetase; GlyRS
T1 sequence: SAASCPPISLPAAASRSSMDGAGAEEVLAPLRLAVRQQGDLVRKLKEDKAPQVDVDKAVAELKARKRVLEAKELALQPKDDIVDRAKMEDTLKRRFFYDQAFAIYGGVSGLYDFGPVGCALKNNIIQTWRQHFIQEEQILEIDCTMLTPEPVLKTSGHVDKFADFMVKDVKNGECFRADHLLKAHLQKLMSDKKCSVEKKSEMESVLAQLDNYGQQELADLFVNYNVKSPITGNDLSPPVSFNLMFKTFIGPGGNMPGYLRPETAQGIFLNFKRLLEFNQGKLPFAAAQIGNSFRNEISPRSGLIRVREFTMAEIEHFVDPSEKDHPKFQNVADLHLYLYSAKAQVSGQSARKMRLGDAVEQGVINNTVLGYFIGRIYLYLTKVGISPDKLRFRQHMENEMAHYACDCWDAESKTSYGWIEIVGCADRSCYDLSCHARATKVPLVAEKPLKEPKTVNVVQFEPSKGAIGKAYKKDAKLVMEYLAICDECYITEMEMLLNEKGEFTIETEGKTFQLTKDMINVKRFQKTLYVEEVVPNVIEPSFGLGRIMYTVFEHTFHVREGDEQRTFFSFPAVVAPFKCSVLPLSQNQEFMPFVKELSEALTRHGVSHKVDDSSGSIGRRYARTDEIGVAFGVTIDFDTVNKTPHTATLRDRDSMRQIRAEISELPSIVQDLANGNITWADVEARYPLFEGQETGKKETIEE
Protocol details: flow cytometry, H929 + GARS siRNA (siRNA against the putative target); None 452
Outcome measure: mAb binding (MFI)
Give bare numbers.

Items follow; give mAb binding (MFI) for each.
1. HW-16 chimeric rabbit-human IgG1 LA/LA/PG (antibody, V domains shown, Fc-silenced (L234A/L235A/P329G) IgG1, kappa; Alexa Fluor 647-labeled in single-step flow cytometry; Cluster C-45) VH: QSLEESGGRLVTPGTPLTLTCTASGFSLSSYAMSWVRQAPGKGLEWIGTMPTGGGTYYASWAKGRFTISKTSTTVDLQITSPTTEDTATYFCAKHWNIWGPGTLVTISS VL: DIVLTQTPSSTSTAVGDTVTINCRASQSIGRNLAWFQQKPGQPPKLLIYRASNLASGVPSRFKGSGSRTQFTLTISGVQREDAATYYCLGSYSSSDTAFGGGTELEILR
2. HW-45 chimeric rabbit-human IgG1 LA/LA/PG (antibody, V domains shown, Fc-silenced (L234A/L235A/P329G) IgG1, lambda; Alexa Fluor 647-labeled in single-step flow cytometry; Prototype of cluster C-45) VH: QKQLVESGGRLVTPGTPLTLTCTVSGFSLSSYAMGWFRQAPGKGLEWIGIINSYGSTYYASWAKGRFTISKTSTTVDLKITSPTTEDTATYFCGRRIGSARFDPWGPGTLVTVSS VL: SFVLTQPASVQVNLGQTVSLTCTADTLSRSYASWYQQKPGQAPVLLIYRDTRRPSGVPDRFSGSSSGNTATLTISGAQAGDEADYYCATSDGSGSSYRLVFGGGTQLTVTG
3. HW-56 chimeric rabbit-human IgG1 LA/LA/PG (antibody, V domains shown, Fc-silenced (L234A/L235A/P329G) IgG1, kappa; Alexa Fluor 647-labeled in single-step flow cytometry; Cluster C-45) VH: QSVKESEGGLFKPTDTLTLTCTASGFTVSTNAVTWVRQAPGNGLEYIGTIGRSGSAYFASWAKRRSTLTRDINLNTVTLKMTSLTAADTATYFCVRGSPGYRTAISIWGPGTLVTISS VL: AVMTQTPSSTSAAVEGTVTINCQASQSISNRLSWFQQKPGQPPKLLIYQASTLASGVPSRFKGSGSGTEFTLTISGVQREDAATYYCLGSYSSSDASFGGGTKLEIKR
4. HW-28 chimeric rabbit-human IgG1 LA/LA/PG (antibody, V domains shown, Fc-silenced (L234A/L235A/P329G) IgG1, lambda; Alexa Fluor 647-labeled in single-step flow cytometry; Cluster C-45) VH: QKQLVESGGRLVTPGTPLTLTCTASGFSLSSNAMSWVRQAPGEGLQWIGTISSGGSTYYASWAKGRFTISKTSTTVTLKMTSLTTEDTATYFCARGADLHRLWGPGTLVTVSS VL: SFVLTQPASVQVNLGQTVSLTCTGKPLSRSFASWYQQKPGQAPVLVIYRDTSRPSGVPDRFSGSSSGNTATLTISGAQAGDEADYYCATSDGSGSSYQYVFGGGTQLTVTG
5. HW-81 chimeric rabbit-human IgG1 LA/LA/PG (antibody, V domains shown, Fc-silenced (L234A/L235A/P329G) IgG1, lambda; Alexa Fluor 647-labeled in single-step flow cytometry; Cluster C-45) VH: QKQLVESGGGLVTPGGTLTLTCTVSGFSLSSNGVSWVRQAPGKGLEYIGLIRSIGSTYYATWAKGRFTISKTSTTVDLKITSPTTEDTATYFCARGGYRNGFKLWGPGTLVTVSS VL: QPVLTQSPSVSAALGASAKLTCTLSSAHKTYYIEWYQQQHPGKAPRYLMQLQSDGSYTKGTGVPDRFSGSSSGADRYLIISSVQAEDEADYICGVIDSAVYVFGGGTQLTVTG
6. HW-8 chimeric rabbit-human IgG1 LA/LA/PG (antibody, V domains shown, Fc-silenced (L234A/L235A/P329G) IgG1, kappa; Alexa Fluor 647-labeled in single-step flow cytometry; Cluster C-45) VH: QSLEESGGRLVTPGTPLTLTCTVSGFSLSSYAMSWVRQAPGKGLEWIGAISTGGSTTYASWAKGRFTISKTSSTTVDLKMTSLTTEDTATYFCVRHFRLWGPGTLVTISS VL: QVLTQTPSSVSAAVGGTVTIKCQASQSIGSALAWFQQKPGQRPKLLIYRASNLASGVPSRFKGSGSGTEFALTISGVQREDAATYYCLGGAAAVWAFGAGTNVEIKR

1. 155000
2. 76900
3. 413000
4. 170000
5. 216000
6. 109000
